All values here come from paper PMC6181373.

# study-target: SD-LDL (small dense LDL particle; ApoB100 lipoprotein)
# assay-details: SPRi
# condition-summary: 5' disulfide, aptamer on gold chip, 10 mM HEPES, 120 mM NaCl, 10 mM KCl, 5 mM MgCl2, pH 7.4, targets in PBS with 0.1% Tween, random-DNA signal subtracted, temperature …
pKd: −log10 of the molar value.

{"columns": ["polymer-sequence", "study-target", "pKd"],
 "data": [
  ["AACTACATGGTATGTGGTGAACTAAACCATTCTTGTCTCGCATTTTTCTCTTTTATATTATTTGACGTACAATGTACCC [LDL-A38]", "SD-LDL (small dense LDL particle; ApoB100 lipoprotein)", 9.63],
  ["AACTACATGGTATGTGGTGAACTAACCTTAATTTACCCTTGTTTTATCATTTCCATCATAGCTGACGTACAATGTACCC [LDL-A12]", "SD-LDL (small dense LDL particle; ApoB100 lipoprotein)", 10.64],
  ["AACTACATGGTATGTGGTGAACTACCTCGATTTTATATTATTTCGCTTACCAACAACTGCAGAGACGTACAATGTACCC [LDL-A1]", "SD-LDL (small dense LDL particle; ApoB100 lipoprotein)", 9.52]
]}
